test system: red blood cells; assay: Hemolysis assay; assay type: cell-based, Sprague-Dawley mouse
Where a SMILES comes first, the peptide text is derived from it. [ ]: non-standard residue; d: D form. Gly(N(CH2)2(3-indolyl)) = O=C(O)CNCCc1c[nH]c2ccccc12; Nspe = C[C@H](NCC(=O)O)c1ccccc1; Nlys = NCCCCNCC(=O)O
measurement.type: HC10 (µM)
Write the number in µM without appending the unit.

Worked cases, HC10 given:
{"compound": "C[C@@H](c1ccccc1)N(CC(N)=O)C(=O)CN(C(=O)CN(CCCCN)C(=O)CN(C(=O)CN(C(=O)CN(CCCCN)C(=O)CN(CCc1c[nH]c2ccccc12)C(=O)CN(CCc1c[nH]c2ccccc12)C(=O)CN(CCCCN)C(=O)CN(CCc1c[nH]c2ccccc12)C(=O)CN(CCc1c[nH]c2ccccc12)C(=O)CNCCCCN)[C@@H](C)c1ccccc1)[C@@H](C)c1ccccc1)[C@@H](C)c1ccccc1", "measurement.type": "HC10", "numeric.readout": 23.2}
{"compound": "C[C@@H](c1ccccc1)N(CC(N)=O)C(=O)CN(CCCCN)C(=O)CN(C(=O)CN(CCCCN)C(=O)CN(CCCCN)C(=O)CN(C(=O)CN(C(=O)CN(CCCCN)C(=O)CN(C(=O)CN(C(=O)CN(CCCCN)C(=O)CN(C(=O)CNCCc1c[nH]c2ccccc12)[C@@H](C)c1ccccc1)[C@@H](C)c1ccccc1)[C@@H](C)c1ccccc1)[C@@H](C)c1ccccc1)[C@@H](C)c1ccccc1)[C@@H](C)c1ccccc1", "measurement.type": "HC10", "numeric.readout": 85.0}

# next compound below
Observed HC10 on red blood cells, entry C[C@@H](c1ccccc1)N(CC(=O)N(CCCCN)CC(=O)N(CC(=O)N(CC(=O)N(CCCCN)CC(=O)N(CC(=O)N(CC(=O)N(CCCCN)CC(=O)N(CCc1c[nH]c2ccccc12)CC(=O)N(CCc1c[nH]c2ccccc12)CC(N)=O)[C@@H](C)c1ccccc1)[C@@H](C)c1ccccc1)[C@@H](C)c1ccccc1)[C@@H](C)c1ccccc1)C(=O)CN(C(=O)CNCCCCN)[C@@H](C)c1ccccc1 [Peptoid 11-2] (H-[Nlys][Nspe][Nspe][Nlys][Nspe][Nspe][Nlys][Nspe][Nspe][Nlys][Gly(N(CH2)2(3-indolyl))][Gly(N(CH2)2(3-indolyl))]-NH2) , equals 8.7
